Target: Mm_Fpr1 (Mus musculus, UniProt P33766)
Construct: expressed in transfected cells
Sequence (P33766 1-364): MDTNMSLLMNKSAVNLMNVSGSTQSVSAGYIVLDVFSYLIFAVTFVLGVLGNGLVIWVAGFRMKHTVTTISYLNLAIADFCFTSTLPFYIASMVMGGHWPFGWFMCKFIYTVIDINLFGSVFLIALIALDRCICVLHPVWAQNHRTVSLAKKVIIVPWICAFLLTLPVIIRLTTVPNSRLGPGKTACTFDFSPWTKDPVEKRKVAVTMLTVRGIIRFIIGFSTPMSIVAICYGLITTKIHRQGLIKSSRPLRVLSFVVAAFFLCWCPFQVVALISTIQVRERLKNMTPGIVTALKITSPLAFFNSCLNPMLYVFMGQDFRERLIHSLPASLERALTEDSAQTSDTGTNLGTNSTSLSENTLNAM
Assay: BRET receptor-RLuc8 interaction with Venus-mGsi
Type: cell-based
Where a SMILES comes first, the peptide text is derived from it. The star is where a group is joined. For = O=C*

compound: COc1cc(F)c([C@@H]2CNC(=O)[C@H]2NC(=O)Nc2ccccc2)c(F)c1
experimental_target: Mm_Fpr1 (Mus musculus, UniProt P33766)
Emax, %: 21.7

compound: CC[C@H](C)[C@H](NC(=O)[C@H](CC(C)C)NC(=O)[C@H](CCCCN)NC(=O)[C@H](CCSC)NC(=O)[C@H](CC(C)C)NC(=O)[C@@H]1CCCN1C(=O)[C@H](CC(N)=O)NC(=O)[C@@H](NC(=O)[C@H](CCCCN)NC(=O)[C@H](CCCNC(=N)N)NC(=O)[C@H](CCSC)NC(=O)[C@@H]1CCCN1C(=O)[C@@H](NC(=O)[C@H](CCSC)NC=O)[C@@H](C)O)[C@@H](C)CC)C(=O)N[C@@H](CC(N)=O)C(=O)O [MCT-2, Formyl-MTPMRKINPLMKLIN] (For-MTPMRKINPLMKLIN-OH)
experimental_target: Mm_Fpr1 (Mus musculus, UniProt P33766)
Emax, %: -8.19

compound: CSCC[C@H](NC(=O)[C@H](Cc1ccc(O)cc1)NC(=O)[C@H](CCCCN)NC(=O)[C@@H](N)Cc1c[nH]c2ccccc12)C(=O)N[C@H](C(=O)N[C@H](CCSC)C(N)=O)C(C)C
experimental_target: Mm_Fpr1 (Mus musculus, UniProt P33766)
Emax, %: 109

compound: CSCC[C@H](NC(=O)[C@@H](NC(=O)[C@H](CCSC)NC(=O)[C@H](Cc1ccc(O)cc1)NC(=O)[C@H](CCCCN)NC(=O)[C@@H](N)Cc1c[nH]c2ccccc12)C(C)C)C(N)=O
experimental_target: Mm_Fpr1 (Mus musculus, UniProt P33766)
Emax, %: 37.5

compound: CSCC[C@H](NC=O)C(=O)N[C@@H](CC(C)C)C(=O)N[C@@H](Cc1ccccc1)C(=O)N[C@@H](CCCCN)C(=O)O [fMLFK, fMet-Leu-Phe-Lys] (For-MLFK-OH)
experimental_target: Mm_Fpr1 (Mus musculus, UniProt P33766)
Emax, %: 62.9

compound: CSCC[C@H](NC=O)C(=O)N[C@@H](CC(C)C)C(=O)N[C@@H](Cc1ccccc1)C(=O)O
experimental_target: Mm_Fpr1 (Mus musculus, UniProt P33766)
Emax, %: 59.3
